- Target: hMAO-B (Homo sapiens)
- Construct: purchased Sigma-Aldrich
- Sequence (P27338 1-520): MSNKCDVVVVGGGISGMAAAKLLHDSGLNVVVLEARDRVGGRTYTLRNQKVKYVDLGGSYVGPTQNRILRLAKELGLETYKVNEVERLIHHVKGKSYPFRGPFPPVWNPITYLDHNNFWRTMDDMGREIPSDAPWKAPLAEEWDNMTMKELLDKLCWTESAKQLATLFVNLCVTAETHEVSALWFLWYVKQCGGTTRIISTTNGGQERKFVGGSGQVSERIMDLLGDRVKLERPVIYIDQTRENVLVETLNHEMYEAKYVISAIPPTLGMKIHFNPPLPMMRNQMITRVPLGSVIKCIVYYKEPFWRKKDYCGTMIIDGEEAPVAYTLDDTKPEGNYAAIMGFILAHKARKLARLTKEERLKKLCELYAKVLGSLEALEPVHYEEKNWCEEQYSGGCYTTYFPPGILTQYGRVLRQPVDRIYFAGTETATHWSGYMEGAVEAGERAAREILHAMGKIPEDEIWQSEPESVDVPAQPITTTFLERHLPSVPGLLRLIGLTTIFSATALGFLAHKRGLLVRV
- Assay Text: hMAO-B inhibition, kynuramine fluorescence assay
- Type: biochemical
- Condition Label: recombinant human MAO-B, kynuramine substrate; mean ± SD of three independent experiments
- Experimental: Activity measurements (IC50) for hMAO-A and hMAO-B were carried out as reported in the literature. Recombinant human MAO-A and MAO-B were obtained commercially (Sigma-Aldrich, Cape Town, South Africa) and were used as enzyme sources. Kynuramine is a non-specific substrate and serves as a substrate for both hMAO isoforms. The hMAOs metabolize kynuramine to produce 4-hydroxyquinoline, which was measured at the endpoint of the enzyme reactions by fluorescence spectrophotometry.
Metric: IC50 (µM)
Provide only the numeric value, understood in µM.

Known results for molecules:
[[record]]
molecule = "COC(=O)[C@H](Cc1ccccc1)NC(=O)N[C@@H](C)C(=O)Nc1ccc2c(C)cc(=O)oc2c1 [Compound 18, MeO-Phe-CO-Ala-AMC]"
metric = "IC50"
uom = "µM"
value_measured = 78

[[record]]
molecule = "COCc1cc(=O)oc2cc(NC(=O)[C@H](C)NC(=O)N[C@@H](C)C(=O)OC)ccc12 [Compound 20, MeO-Ala-CO-Ala-AMMC]"
metric = "IC50"
uom = "µM"
value_measured = 75.3


Could you now look at the following molecule, please?
# COCc1cc(=O)oc2cc(NC(=O)[C@@H](NC(=O)[C@H](C)NC(=O)OCc3ccccc3)C(C)(C)C)ccc12 [Compound 11, Z-Ala-tLeu-AMMC] with hMAO-B (Homo sapiens): IC50 is 79.5

###

- Target: hCA IX (Homo sapiens)
- Construct: made in house
- Assay Text: hCA IX inhibition, stopped-flow CO2 hydration assay
- Assay type: biochemical
- Condition Label: Ki hCA I or II (nM)/Ki hCA IX (nM)
Metric: SI hCA IX over hCA I or hCA II

[[record]]
compound = "COC(=O)[C@H](C)NC(=O)N[C@@H](C)C(=O)Nc1ccc2c(C)cc(=O)oc2c1"
value_measured = ">61.2"

[[record]]
compound = "CCOC(=O)CCNC(=O)N[C@@H](C)C(=O)Nc1ccc2c(C)cc(=O)oc2c1"
value_measured = ">38.4"

[[record]]
compound = "CC(=O)N[C@@H](C)C(=O)Nc1ccc2c(C)cc(=O)oc2c1"
value_measured = ">427.3"

[[record]]
compound = "COCc1cc(=O)oc2cc(NC(=O)[C@H](C)NC(C)=O)ccc12"
value_measured = ">340.1"

[[record]]
compound = "COC(=O)[C@H](Cc1ccccc1)NC(=O)N[C@@H](C)C(=O)Nc1ccc2c(C)cc(=O)oc2c1"
value_measured = ">106.8"

[[record]]
compound = "COC(=O)CNC(=O)N[C@@H](C)C(=O)Nc1ccc2c(C)cc(=O)oc2c1"
value_measured = ">54.6"


Could you now look at the following compound, please?
Lab book: SI hCA IX over hCA I or hCA II of CCC(C)C(NC(=O)OCc1ccccc1)C(=O)Nc1ccc2c(COC)cc(=O)oc2c1 (stereo not shown) noted as >127.1
